FYI, the data here is from patent US20240067651A1.

- procedure_text: Stability in Simulated Intestinal Fluid (SIF)
- Format: in vitro ADME
- Parameters: key: % parent compound remaining relative to 0-minute sample
- condition_label: % remaining @ 1 h
readout_type: SIF (% @ 1 h)
One number for each entry, in % @ 1 h.

CC(C)OCCn1c(SCOC(=O)[C@@H](NC(=O)OC(C)(C)C)C(C)C)nc(=O)c2c1ccn2COC(=O)[C@@H](NC(=O)OC(C)(C)C)C(C)C [Example 295] : 0
CC(C)OCCn1c(=S)[nH]c(=O)c2c1ccn2COC(=O)[C@H](N)Cc1ccccc1.O=C(O)C(F)(F)F [Example 311] : 7
CC(C)OCCn1c(=S)[nH]c(=O)c2c1ccn2COC(=O)CCCCOC(=O)CN.O=C(O)C(F)(F)F [Example 330] : 7
CC(C)OCCn1c(=S)[nH]c(=O)c2c1ccn2COC(=O)[C@H](NC(=O)OC(C)(C)C)C(C)C [Example 298] : 59
CC(C)OCCn1c(=S)n(COC(=O)[C@H](C)N)c(=O)c2c1ccn2COC(=O)[C@H](C)N.O=C(O)C(F)(F)F.O=C(O)C(F)(F)F [Example 289] : 97
CC(C)OCCn1c(=S)n(COC(=O)[C@H](N)C(C)C)c(=O)c2c1ccn2COC(=O)[C@H](N)C(C)C.O=C(O)C(F)(F)F.O=C(O)C(F)(F)F [Example 301] : 10

Batch lookup, SIF per entry.
1. CC(C)OCCn1c(=S)n(COC(=O)CCCCOC(=O)CN)c(=O)c2c1ccn2COC(=O)CCCCOC(=O)CN.O=C(O)C(F)(F)F.O=C(O)C(F)(F)F [Example 332]
2. CC(C)OCCn1c(SCOC(=O)[C@H](Cc2ccccc2)NC(=O)OC(C)(C)C)nc(=O)c2c1ccn2COC(=O)[C@H](Cc1ccccc1)NC(=O)OC(C)(C)C [Example 303]
3. CC(C)OCCn1c(=S)[nH]c(=O)c2c1ccn2COC(=O)[C@@H](N)C(C)C.O=C(O)C(F)(F)F [Example 296]

Given back:
[4, 1, 43]

# batch: return SIF for each of the 2 compounds below
1. CC(C)OCCn1c(=S)n(COC(=O)[C@H](C)N)c(=O)c2c1ccn2CO.O=C(O)C(F)(F)F [Example 290]
2. CC(C)OCCn1c(=S)[nH]c(=O)c2c1ccn2COC(=O)[C@@H](NC(=O)OC(C)(C)C)C(C)C [Example 294]

Given back:
1: 10; 2: 3

----------
- procedure_text: Stability in Simulated Gastric Fluid (SGF)
- Assay type: in vitro ADME
- Parameters: key: % parent compound remaining relative to 0-minute sample
- condition_label: % remaining at 1 h in simulated gastric fluid; the 17th table
readout_type: SGF
The reply should read as a number followed by its unit.

// worked examples, SGF included
CC(=O)OCc1ccccc1N(C)C(=O)OC(C)n1ccc2c1c(=O)nc(S)n2CCOC(C)C (stereo not shown) : 67% remaining
CCCCCCOC(=O)OCSc1nc(=O)c2c(ccn2COC(=O)OCCCCCC)n1CCOC(C)C : 80% remaining

Fill in SGF for each of the 7 compounds listed.
1. CCCCCOC(=O)OCn1c(=O)c2c(ccn2COC(=O)OCCCCC)n(CCOC(C)C)c1=S
2. CC(C)OCCn1c(=S)[nH]c(=O)c2c1ccn2C(=O)NCc1ccccc1
3. CCC(C)NC(=O)n1ccc2c1c(=O)[nH]c(=S)n2CCOC(C)C (stereo not shown)
4. CCCCCCCOC(=O)OCn1ccc2c1c(=O)nc(S)n2CCOC(C)C
5. CCCCCCOC(=O)OCn1ccc2c1c(=O)nc(S)n2CCOC(C)C
6. CCCCCCCOC(=O)OCSc1nc(=O)c2c(ccn2COC(=O)OCCCCCCC)n1CCOC(C)C
7. CC(C)NC(=O)n1ccc2c1c(=O)[nH]c(=S)n2CCOC(C)C

Given back:
["100% remaining", "95% remaining", "91% remaining", "98% remaining", "76% remaining", "77% remaining", "87% remaining"]

Would you mind giving SGF for every compound in the list below?
1. CC(C)OCCn1c(=S)[nH]c(=O)c2c1ccn2C(=O)Nc1ccccc1
2. CCCCCCOC(=O)OCn1c(=O)c2c(ccn2COC(=O)OCCCCCC)n(CCOC(C)C)c1=S
3. CC(=O)OCc1ccccc1N(C)C(=O)OCn1ccc2c1c(=O)nc(S)n2CCOC(C)C
4. CCCNC(=O)n1ccc2c1c(=O)[nH]c(=S)n2CCOC(C)C
5. CCCCCOC(=O)OCn1ccc2c1c(=O)nc(S)n2CCOC(C)C

Given back:
1. 100% remaining
2. 94% remaining
3. 98% remaining
4. 98% remaining
5. 91% remaining

Field: SGF. Fill in for each record below.
1. CCCCCOC(=O)OCSc1nc(=O)c2c(ccn2COC(=O)OCCCCC)n1CCOC(C)C
2. CCCCNC(=O)n1ccc2c1c(=O)[nH]c(=S)n2CCOC(C)C

Given back:
["88% remaining", "83% remaining"]
